# measurement_target: human GLP-1 receptor (human, UniProt P43220 24-463)
# assay_overview: cell-based or functional assay
*1 amine or outer side, *2 acyl side, *3 side chain or, on linkers, in order; H or OH if unused. Side-chain parts run from the residue outwards. [ ]: non-standard residue; d: D form. The star is where a group is joined. C20 diacid = O=C(O)CCCCCCCCCCCCCCCCCCC(=O)*; C18 diacid = O=C(O)CCCCCCCCCCCCCCCCC(=O)*; C16 diacid = O=C(O)CCCCCCCCCCCCCCC(=O)*; γGlu = O=C(O)[C@H](CCC(=O)[*:2])N[*:1]; Desaminohistidyl = O=C(CCc1c[nH]cn1)*; Ac4c = NC1(C(=O)O)CCC1; Aib = CC(C)(N)C(=O)O
value_type: EC50 GLP-1R [pM], CRE luciferase reporter gene assay (pM)

INSERT INTO results (binder, quantitative_result) VALUES
  ('[Desaminohistidyl][Aib]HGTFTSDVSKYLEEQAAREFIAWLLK([Gly-Ser-Glu-Gly-Ser-γGlu-γGlu-C20 diacid])T-NH2', 5),
  ('[Desaminohistidyl][Ac4c]HGTFTSDVSKYLEGRAAREFIAWLLK([Gly-Ser-Glu-Gly-Ser-γGlu-γGlu-C18 diacid])T-NH2', 12),
  ('[Desaminohistidyl][Aib]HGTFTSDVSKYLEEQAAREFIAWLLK([Ado-Ado-γGlu-γGlu-C16 diacid])T-NH2', 60.7),
  ('[Desaminohistidyl][Ac4c]HGTFTSDVSKYLEEQAAREFIAWLLKK([Gly-Ser-Glu-Gly-Ser-γGlu-γGlu-C18 diacid])-NH2', 2);
